The origin of these recorded values is patent US20150140169.

Target: T1, alpha-s1 casein from Bos taurus
T1 chain: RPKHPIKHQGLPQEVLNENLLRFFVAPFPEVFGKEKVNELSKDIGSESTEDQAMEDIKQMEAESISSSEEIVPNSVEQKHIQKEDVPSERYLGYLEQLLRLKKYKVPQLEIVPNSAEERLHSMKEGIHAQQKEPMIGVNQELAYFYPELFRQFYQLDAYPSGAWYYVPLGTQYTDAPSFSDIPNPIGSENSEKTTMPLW
recorded.endpoint: αs1 CN, 6 hours, 11° C. (Volume)
A number alone suffices; assume Volume.

Q: Supply recorded αs1 CN, 6 hours, 11° C. for bovine chymosin B variant #74 (A51V, K221M) (protein) GEVASVPLTNYLDSQYFGKIYLGTPPQEFTVLFDTGSSDFWVPSIYCKSNVCKNHQRFDPRKSSTFQNLGKPLSIHYGTGSMQGILGYDTVTVSNIVDIQQTVGLSTQEPGDVFTYAEFDGILGMAYPSLASEYSIPVFDNMMNRHLVAQDLFSVYMDRNGQESMLTLGAIDPSYYTGSLHWVPVTVQQYWQFTVDSVTISGVVVACEGGCQAILDTGTSMLVGPSSDILNIQQAIGATQNQYGEFDIDCDNLSYMPTVVFEINGKMYPLTPSAYTSQDQGFCTSGFQSENHSQKWILGDVFIREYYSVFDRANNLVGLAKAI here.
A: 2.09e+07
